From: patent US10512700B2

- PROCEDURE SUMMARY: Chromatographic Hydrophobicity Index (CHI) and log PCHI determination
- Format: physicochemical
- EXPERIMENTAL SETUP: reverse phase HPLC; Table 2; read-out: logPCHI
Reported chromatographic logP values for a set of compounds
MEASURED ATTRIBUTE: chromatographic logP

INSERT INTO assay_data (compound, reported_measurement) VALUES
  ('O=C(CCc1cccc(I)c1)N1CCN(C(=O)c2cc(Cc3n[nH]c(=O)c4ccccc34)ccc2F)CC1 [c-5 (^127I)]', 3),
  ('O=C(Cc1cccc(I)c1)N1CCN(C(=O)c2cc(Cc3n[nH]c(=O)c4ccccc34)ccc2F)CC1 [c-3 (^127I)]', 2.7),
  ('O=C(CCc1ccc(I)cc1)N1CCN(C(=O)c2cc(Cc3n[nH]c(=O)c4ccccc34)ccc2F)CC1 [c-6 (^127I)]', 3),
  ('O=C(Cc1ccc(I)cc1)N1CCN(C(=O)c2cc(Cc3n[nH]c(=O)c4ccccc34)ccc2F)CC1 [c-4 (^127I)]', 2.7);
